system: CLZ3 (HCA2 human fibroblast dual HR-NHEJ reporter); assay: HR repair efficiency (tdTomato+ cells) relative to control (log10 fold); higher = more homologous recombination; settings: 5 µM; doxycycline 0.5 ug/mL;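 further: compound given one day before doxycycline, which switches on I-SceI endonuclease expression to create double-strand breaks within the integrated reporter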
The threshold is inclusive: HR repair efficiency (log10) of exactly 0.04 counts as satisfied; values below receive not satisfied.

C=C(C)[C@@H]1CC[C@]2(C(=O)O)CC[C@]3(C)[C@H](CC[C@@H]4[C@@]5(C)CC[C@H](O[C@@H]6OC[C@H](O)[C@H](O)[C@H]6O[C@@H]6O[C@@H](C)[C@H](O)[C@@H](O)[C@H]6O)[C@@](C)(CO)[C@@H]5CC[C@]43C)[C@@H]12 [Anemoside A3]; not satisfied
CCC/C=C1\OC(=O)C2=C1CCC1C3C=C4C(=O)O/C(=C\CCC)C4(CC3)C21 (centres undefined) [Levistilide A]; not satisfied

INPUT: Could you tell me if the measured HR repair efficiency (log10) of O=C(/C=C/c1ccc(O)cc1)C1=C(O)C(O)([C@@H]2O[C@H](CO)[C@@H](O)[C@H](O)[C@H]2O)C(O)=C([C@@H]2O[C@H](CO)[C@@H](O)[C@H](O)[C@H]2O)C1=O (some centres undefined) [Hydroxysafflor yellow A] reaches 0.04 or more?
OUTPUT: satisfied

INPUT: Could you tell me if the measured HR repair efficiency (log10) of `C[C@@H]1O[C@@H](O[C@H]2[C@H](Oc3cc(O)c(C(=O)CCc4ccc(O)cc4)c(O)c3)O[C@H](CO)[C@@H](O)[C@@H]2O)[C@H](O)[C@H](O)[C@H]1O` reaches 0.04 or more?
OUTPUT: not satisfied

INPUT: Could you tell me if the measured HR repair efficiency (log10) of C[C@H]1O[C@H](OC[C@H]2O[C@@H](Oc3c(-c4ccc(O)cc4)oc4cc(O)cc(O)c4c3=O)[C@H](O)[C@@H](O)[C@@H]2O)[C@@H](O)[C@@H](O)[C@@H]1O [Kaempferol-3-O-Rutinoside] reaches 0.04 or more?
OUTPUT: not satisfied

INPUT: Could you tell me if the measured HR repair efficiency (log10) of O=C(O)c1ccccc1O [Salicylic acid] reaches 0.04 or more?
OUTPUT: not satisfied

INPUT: Could you tell me if the measured HR repair efficiency (log10) of CCCOC(=O)c1cc(O)c(O)c(O)c1 [Propyl gallate] reaches 0.04 or more?
OUTPUT: satisfied
